Target: T1, human TREM2 on BWZ cells (human, UniProt Q9NZC2 19-230)
T1 construct: whole, on cells; not tied to the cell line; also called BWZ Human TREM2
T1 sequence (looked up): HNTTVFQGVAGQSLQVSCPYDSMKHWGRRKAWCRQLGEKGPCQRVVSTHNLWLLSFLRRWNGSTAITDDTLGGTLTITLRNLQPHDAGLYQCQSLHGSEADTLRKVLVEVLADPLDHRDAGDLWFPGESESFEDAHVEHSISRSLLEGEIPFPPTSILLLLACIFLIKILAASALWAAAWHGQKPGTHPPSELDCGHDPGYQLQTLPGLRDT
Assay: FACS, BWZ cells
reported_endpoint: binding result

T1-30 (antibody, IgG1, V domains shown, huIgG1; also called TI-30) VH: QLQLQESGPGLVKPSETLSLTCTVSGGSISSSSYYWGWIRQPPGKGLEWIGSIYYSGSTYYNPSLKSRVTISVDTSKNQFSLKLSSVTAADTAVYYCARGRKAAAGIDEAEYFQHWGQGTLVTVSS VL: DIQMTQSPSSVSASVGDRVTITCRASQGISSWLAWYQQKPGKAPKLLIYAASSLQSGVPSRFSGSGSGTDFTLTISSLQPEDFATYYCQQVISFPTFGGGTKVEIK = no binding
T1-15 (antibody, IgG1, V domains shown, huIgG1; also called TI-15; ADI-19082) VH: EVQLVESGGGLVKPGGSLRLSCAASGFTFSSYSMNWVRQAPGKGLEWVSSISSSSSYIYYADSVKGRFTISRDNAKNSLYLQMNSLRAEDTAVYYCARRGGSYDAFQHWGQGTLVTVSS VL: EIVLTQSPGTLSLSPGERATLSCRASQSVSSSYLAWYQQKPGQAPRLLIYGASSRATGIPDRFSGSGSGTDFTLTISRLEPEDFAVYYCQQAFISPPTFGGGTKVEIK = no binding
T1-28 (antibody, IgG1, V domains shown, huIgG1; also called TI-28) VH: EVQLVESGGGLVKPGGSLRLSCAASGFTFSSYSMNWVRQAPGKGLEWVSSISSSSNYIYYADSVKGRFTISRDNAKNSLYLQMNSLRAEDTAVYYCARGPSQYYYDSSAIEAFDIWGQGTMVTVSS VL: EIVLTQSPATLSVSPGERATLSCRASQSVGSNLAWYQQKPGQAPRLLIYGASTRATGIPARFSGSGSGTEFTLTISSLQSEDFAVYYCQQYLYFPLTFGGGTKVEIK = no binding
